The entries below pair molecules with pKi values for Glucocorticoid receptor (Homo sapiens), as found in several publications.
Scale: negative log10 of molar concentration, which is what pKi denotes.

Value lookup for pKi; key = `Cc1cccc(-c2ccc3c(n2)Oc2ccccc2[C@@H]3C(C)(C)C(=O)Nc2nncs2)c1`
7.62

Request: `C[C@]12Cn3cnc(-c4ccc(F)cc4)c3C=C1CCC[C@@H]2[C@](C)(O)c1ccc(Cl)cc1`
8.70

Request: CC1=CC(C)(C)Nc2ccc3c(c21)C(C)Oc1ccc(Cl)cc1-3 (stereo unspecified)
6.44

Request: `CC[C@@H](C)n1cc(-c2ccc(C#N)cc2)c2ccc(NS(C)(=O)=O)cc21`
6.11

Request: `NC(=O)C[C@H]1COc2cc(Cl)ccc2N1C(=O)c1ccc2c(c1)NC(=O)CO2`
7.50

Request: `CC(C)(C(=O)NC(N)=O)[C@@H]1c2ccc(-c3ccc(C(=O)N4CCCC4)nc3)nc2Oc2c(F)cccc21`
8.70

Request: `CC(C)(C(=O)Nc1nccs1)[C@@H](c1ccccc1)c1ccc(O)cc1`
8.92

Request: CC(C)(C(=O)Nc1nccs1)C(c1ccccc1)c1ccc2[nH]ccc2c1 (stereo unspecified)
8.15

Request: `COc1cc(F)ccc1-c1c(C)[nH]c2c(NS(C)(=O)=O)cc(F)cc12`
8.88

Request: C=C1C(C)CCC(C)(C)[C@@H]1Cc1cc(OC)c(Br)cc1OC(C)=O (stereo partly specified)
5.39

Request: `CC1=CC(C)(C)Nc2ccc3c(c21)/C(=C/c1ccccc1N(C)C)Oc1ccc(F)cc1-3`
6.31

Request: `CC(C)(C(=O)Nc1nncs1)[C@H]1c2ccccc2Oc2nc(-c3ccc(C(=O)O)cc3)ccc21`
7.81

Request: `C[C@H]1C(=O)C(C)(C)Nc2ccc3c(c21)[C@H](c1ccccc1)Oc1ccccc1-3`
6.04

Request: `CC(C)n1cc(-c2ccc(C#N)c(F)c2)c2ccc(NS(C)(=O)=O)cc21`
6.28

Request: `CC(C)(C)NC(=O)NCC(C)(C)[C@@H](c1ccccc1)c1ccc2c(cnn2-c2ccc(F)cc2)c1`
8.29

Request: `CC(C)(C(=O)Nc1nccs1)[C@@H](c1ccccc1)c1ccc(O)c(C#N)c1`
9.05
